# Test system: SH-SY5Y
# experiment.description: Cytotoxicity against human SH-SY5Y cells assessed as reduction in cell viability incubated for 72 hrs by CellTiter-Glo assay
# Format: toxicity, cell-based
# applied.conditions: sh-sy5y, 72 h
parameter.measured: CC50 (µM)
Supply the numeric figure in µM, leaving out any unit text.

# example entries with known answers
| compound | parameter.measured | experimental.value |
| --- | --- | --- |
| CN1CCC[C@@H]2c3nc4cc(Cl)c(Cl)cc4c(=O)n3CC[C@H]21 | CC50 | 7.8 |
| CC(C)NCCN1CCC[C@@H]2c3nc4cc(Cl)c(Cl)cc4c(=O)n3CC[C@H]21 (racemic) | CC50 | 6.4 |
| COc1cc2nc3n(c(=O)c2cc1Cl)CC[C@H]1[C@H]3CCCN1CC1COC1 | CC50 | 2.3 |

Kindly consider the entry below.
# input compound: O=c1c2cc(Cl)c(Cl)cc2nc2n1CC[C@@H]1[C@@H]2CCCN1CC1CC1 (racemic) ; wanted: its CC50
4.8

###

# experiment.description: Drug concentration in female CD-1 mouse plasma at 44 mg/kg, ip measured after 2 hrs by LC-MS/MS analysis
# Type: ADME, organism-based
parameter.measured: concentration at 2 h (ng/mL)
Give the value in ng/mL but do not write ng/mL after it.

Reported concentration at 2 h, compound COc1cc2nc3n(c(=O)c2cc1Cl)CC[C@H]1[C@H]3CCCN1CC1COC1 : ____
3850

###

# experiment.description: Drug concentration in female CD-1 mouse plasma at 11 mg/kg, po measured after 12 hrs by LC-MS/MS analysis
# Type: ADME, organism-based
parameter.measured: concentration at 12 h

Recorded concentration at 12 h for COc1cc2nc3n(c(=O)c2cc1Cl)CC[C@H]1[C@H]3CCCN1CC1COC1 , please?
2 ng/mL

###

# experiment.description: Selectivity index, ratio of CC50 for cytotoxicity against human SH-SY5Y cells to EC50 for anti-amoebic activity against Naegleria fowleri Nf69 (ATCC 30215) assessed as inhibition of amoeba growth
# Type: toxicity, cell-based
parameter.measured: Ratio CC50/EC50
Form rule: numeric answer, no unit written next to it.

Consider the following illustrative entries.
| compound | experimental.value |
| --- | --- |
| COc1cc2nc3n(c(=O)c2cc1Cl)CC[C@@H]1[C@@H]3CCCN1CC1COC1 (racemic) | 172 |
| CN1CCC[C@@H]2c3nc4cc(Cl)c(Cl)cc4c(=O)n3CC[C@H]21 | 90.7 |

Attention now shifts to the item below.
Recorded Ratio CC50/EC50 for COc1cc2nc3n(c(=O)c2cc1Cl)CC[C@@H]1[C@@H]3CCCN1CC(C)C (racemic) , please?
10.6

###

# experiment.description: Drug concentration in CD-1 mouse brain infected with Naegleria fowleri Nf69 (ATCC 30215) trophozoites assessed as adverse effect at 50 mg/kg, ip pre-infected for 48 hrs from day 0 followed by single bolus compound administration from day 2 to day 6 and measured on day 14 post-infection
# Type: ADME, organism-based
# applied.conditions: time 13 day, read-out: Ct
parameter.measured: concentration at 312 h

Which concentration at 312 h reading was recorded for the molecule COc1cc2nc3n(c(=O)c2cc1Cl)CC[C@H]1[C@H]3CCCN1CC1COC1 ?
~20 µM

###

# experiment.description: AUCinfinity in female CD-1 mouse at 11 mg/kg, iv measured after 12 hrs by LC-MS/MS analysis
# Format: ADME, organism-based
# applied.conditions: in vivo
parameter.measured: AUC (ng·h/mL)
Your answer should be a plain number; it is taken to be in ng·h/mL.

Form field: reported AUC of COc1cc2nc3n(c(=O)c2cc1Cl)CC[C@H]1[C@H]3CCCN1CC1COC1
5010
